EC50 values for the compounds below.
Target: Alpha 2B receptor (Homo sapiens)
Construct: expressed in transfected cells; host or cells: NIH-3T3
Experiment: RSAT (Receptor Selection and Amplification Technology) assay, alpha 2B
Type: cell-based
Details: NIH-3T3 cells cotransfected with receptor and Gq/i5; na = not active
assay.metric: EC50 (nM)

# compound, value.observed
data = [
    ("Fc1ccc(CC(N=C2NCCN2)c2cccc(Cl)c2Cl)cc1 (stereo not drawn)", 3.73),
    ("Clc1cccc(C(Cc2ccccc2)/N=C2/NCCS2)c1 (stereo not drawn)", 6.49),
    ("Fc1cccc(Cl)c1CC(N=C1NCCN1)c1cccc(Cl)c1Cl (stereo not drawn)", 12.5),
    ("Fc1c(Cl)cccc1C(Cc1ccccc1)/N=C1/NCCS1 (stereo not drawn)", 4.54),
    ("COc1ccccc1CC(NC1=NCCN1)c1cccc(Cl)c1 (stereo not drawn)", 0.61),
    ("Clc1ccc(CC(N=C2NCCN2)c2cccc(Cl)c2Cl)c(Cl)c1 (stereo not drawn)", 2.79),
    ("Clc1cccc(C(Cc2ccccc2Br)N=C2NCCN2)c1Cl (stereo not drawn)", 3.24),
    ("Fc1c(Cl)cccc1C(Cc1ccccc1)/N=C1\\NCCO1 (stereo not drawn)", 2.79),
    ("c1ccc(CC(/N=C2/NCCS2)c2ccccc2)cc1 (stereo not drawn)", 5.43),
    ("COc1cccc(CC(N=C2NCCN2)c2cccc(Cl)c2Cl)c1 (stereo not drawn)", 1.91),
    ("Clc1ccc(Cl)c(CC(N=C2NCCN2)c2cccc(Cl)c2Cl)c1 (stereo not drawn)", 1.02),
    ("Cc1ccc(CC(/N=C2/NCCS2)c2cccc(Cl)c2)cc1 (stereo not drawn)", 7.32),
    ("Cc1ccccc1CC(/N=C1/NCCS1)c1cccc(Cl)c1 (stereo not drawn)", 3.29),
    ("Cc1ccccc1CC(N=C1NCCN1)c1cccc(Cl)c1 (stereo not drawn)", 1.92),
    ("Cc1cccc(C(Cc2ccccc2)/N=C2/NCCS2)c1C (stereo not drawn)", 3.69),
    ("Cc1ccc(CC(N=C2NCCN2)c2cccc(Cl)c2)cc1 (stereo not drawn)", 5.61),
    ("Oc1cccc(CC(NC2=NCCN2)c2cccc(Cl)c2Cl)c1 (stereo not drawn)", 1.55),
    ("Cc1cccc(C(Cc2ccccc2)N=C2NCCN2)c1C (stereo not drawn)", 2.54),
    ("Clc1cccc(C(Cc2ccccc2)N=C2NCCN2)c1Cl (stereo not drawn)", 3.09),
    ("Fc1c(Cl)cccc1C(Cc1ccccc1)N=C1NCCN1 (stereo not drawn)", 3.57),
    ("Cc1cccc(CC(/N=C2\\NCCO2)c2cccc(Cl)c2)c1 (stereo not drawn)", 2.79),
    ("Clc1ccc(CC(NC2=NCCN2)c2cccc(Cl)c2Cl)cc1Cl (stereo not drawn)", 10.8),
    ("Cc1c(Cl)cccc1C(Cc1ccccc1)N=C1NCCN1 (stereo not drawn)", 7.64),
    ("Clc1cccc(C(Cc2ccccc2)/N=C2\\NCCO2)c1 (stereo not drawn)", 7.14),
]

====

Target: Alpha 2B receptor (Homo sapiens, UniProt P18089)
Construct: expressed in transfected cells; host or cells: NIH-3T3
Test: RSAT (Receptor Selection and Amplification Technology) assay, alpha 2B
Format: cell-based
Conditions: ratio of maximal effect of the drug to maximal effect of standard full agonist brimonidine
RSAT (rel eff) Alpha 2B, intrinsic activity values for the compounds below.
assay.metric: RSAT (rel eff) Alpha 2B, intrinsic activity

# compound, value.observed
data = [
    ("COc1cccc(CC(N=C2NCCN2)c2cccc(Cl)c2Cl)c1 (centres unmarked)", 1.00),
    ("Fc1ccc(CC(N=C2NCCN2)c2cccc(Cl)c2Cl)cc1 (centres unmarked)", 0.89),
    ("Cc1cccc(C(Cc2ccccc2)N=C2NCCN2)c1C (centres unmarked)", 0.83),
    ("Clc1ccc(CC(N=C2NCCN2)c2cccc(Cl)c2Cl)c(Cl)c1 (centres unmarked)", 1.17),
    ("Cc1ccc(CC(/N=C2/NCCS2)c2cccc(Cl)c2)cc1 (centres unmarked)", 0.76),
]

====

Molecular target: Alpha 2B receptor (Homo sapiens, UniProt P18089)
Construct: expressed in transfected cells; host or cells: NIH-3T3
Sequence (P18089 1-450): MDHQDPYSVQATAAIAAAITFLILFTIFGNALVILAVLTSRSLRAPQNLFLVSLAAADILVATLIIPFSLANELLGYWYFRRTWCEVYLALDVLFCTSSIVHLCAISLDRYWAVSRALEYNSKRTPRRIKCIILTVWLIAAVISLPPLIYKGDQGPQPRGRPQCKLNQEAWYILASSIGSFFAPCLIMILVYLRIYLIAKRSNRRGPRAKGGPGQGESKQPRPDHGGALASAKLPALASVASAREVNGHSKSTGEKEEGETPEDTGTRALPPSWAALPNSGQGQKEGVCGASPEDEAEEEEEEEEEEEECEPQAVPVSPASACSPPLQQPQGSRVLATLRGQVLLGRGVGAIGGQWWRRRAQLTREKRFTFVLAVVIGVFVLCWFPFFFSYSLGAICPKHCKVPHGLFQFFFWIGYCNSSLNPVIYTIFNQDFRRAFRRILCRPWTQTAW
Assay: RSAT (Receptor Selection and Amplification Technology) assay, alpha 2B
Format: cell-based
Conditions: ratio of maximal effect of the drug to maximal effect of standard full agonist brimonidine
Criterion: RSAT (rel eff) Alpha 2B, intrinsic activity strictly less than 0.9. Met: 1 (yes). Not met: 0 (no).

# compound, cat
measured = [
    ("Cc1cccc(CC(/N=C2/NCCS2)c2cccc(Cl)c2)c1 (stereo not shown)", "1 (yes)"),
    ("Clc1cccc(C(Cc2ccccc2)N=C2NCCN2)c1 (stereo not shown)", "1 (yes)"),
    ("Cc1ccccc1CC(N=C1NCCN1)c1cccc(Cl)c1 (stereo not shown)", "1 (yes)"),
    ("Fc1c(Cl)cccc1C(Cc1ccccc1)/N=C1\\NCCO1 (stereo not shown)", "0 (no)"),
    ("Cc1ccc(CC(/N=C2\\NCCO2)c2cccc(Cl)c2)cc1 (stereo not shown)", "1 (yes)"),
    ("Clc1cc(Cl)cc(CC(N=C2NCCN2)c2cccc(Cl)c2Cl)c1 (stereo not shown)", "0 (no)"),
    ("Cc1ccc(CC(N=C2NCCN2)c2cccc(Cl)c2)cc1 (stereo not shown)", "1 (yes)"),
    ("Clc1ccc(CC(NC2=NCCN2)c2cccc(Cl)c2Cl)cc1Cl (stereo not shown)", "0 (no)"),
    ("Cc1c(Cl)cccc1C(Cc1ccccc1)N=C1NCCN1 (stereo not shown)", "1 (yes)"),
    ("Clc1ccc(Cl)c(CC(N=C2NCCN2)c2cccc(Cl)c2Cl)c1 (stereo not shown)", "0 (no)"),
    ("Cc1c(F)cccc1CC(N=C1NCCN1)c1cccc(Cl)c1Cl (stereo not shown)", "0 (no)"),
    ("Fc1c(Cl)cccc1C(Cc1ccccc1)N=C1NCCN1 (stereo not shown)", "1 (yes)"),
    ("Oc1cccc(CC(NC2=NCCN2)c2cccc(Cl)c2Cl)c1 (stereo not shown)", "0 (no)"),
    ("Cc1cccc(CC(N=C2NCCN2)c2cccc(Cl)c2)c1 (stereo not shown)", "1 (yes)"),
    ("c1ccc(CC(/N=C2\\NCCO2)c2ccccc2)cc1 (stereo not shown)", "0 (no)"),
]

====

EC50 values for the compounds below.
Target: Alpha 2C receptor (Homo sapiens, UniProt P18825)
Construct: expressed in transfected cells; host or cells: NIH-3T3
Sequence (P18825 whole entry): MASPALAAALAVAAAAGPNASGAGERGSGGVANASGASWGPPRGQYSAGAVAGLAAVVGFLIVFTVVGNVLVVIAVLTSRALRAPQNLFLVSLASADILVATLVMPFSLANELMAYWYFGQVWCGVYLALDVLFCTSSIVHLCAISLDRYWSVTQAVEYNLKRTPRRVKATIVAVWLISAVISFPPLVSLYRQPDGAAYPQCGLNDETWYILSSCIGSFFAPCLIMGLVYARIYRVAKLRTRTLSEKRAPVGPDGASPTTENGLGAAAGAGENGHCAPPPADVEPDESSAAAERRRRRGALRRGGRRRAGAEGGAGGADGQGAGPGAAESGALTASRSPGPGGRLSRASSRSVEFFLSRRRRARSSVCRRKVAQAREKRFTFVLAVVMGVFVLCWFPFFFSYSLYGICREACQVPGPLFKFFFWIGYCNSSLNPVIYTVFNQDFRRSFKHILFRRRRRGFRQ
Assay: RSAT (Receptor Selection and Amplification Technology) assay, alpha 2C
Assay type: cell-based
Settings: NIH-3T3 cells cotransfected with receptor and Gq/i5; na = not active

# compound, uom, EC50
rows = [
    ("Fc1c(Cl)cccc1C(Cc1ccccc1)/N=C1\\NCCO1 (stereo not drawn)", "nM", 2.57),
    ("Cc1ccc(CC(/N=C2\\NCCO2)c2cccc(Cl)c2)cc1 (stereo not drawn)", "nM", 6.78),
    ("Cc1cccc(CC(N=C2NCCN2)c2cccc(Cl)c2)c1 (stereo not drawn)", "nM", 3.7),
    ("Cc1ccc(CC(/N=C2/NCCS2)c2cccc(Cl)c2)cc1 (stereo not drawn)", "nM", 11.8),
    ("Clc1ccc(Cl)c(CC(N=C2NCCN2)c2cccc(Cl)c2Cl)c1 (stereo not drawn)", "nM", 3.92),
    ("Cc1ccccc1CC(/N=C1\\NCCO1)c1cccc(Cl)c1 (stereo not drawn)", "nM", 1.46),
    ("c1ccc(CC(/N=C2/NCCS2)c2ccccc2)cc1 (stereo not drawn)", "nM", 9.63),
    ("Cc1cccc(C(Cc2ccccc2)/N=C2\\NCCO2)c1C (stereo not drawn)", "nM", 13.4),
    ("Cc1c(F)cccc1CC(N=C1NCCN1)c1cccc(Cl)c1Cl (stereo not drawn)", "nM", 3.54),
]
